- test_summary: Half-life of peptides incubated in mouse plasma, levels by LC-MS
- condition_info: mouse, plasma
Where a SMILES comes first, the peptide text is derived from it.
readout: half-life at 10 µM (min)

{"molecule": "CSCC[C@H](NC(=O)[C@H](CC(C)C)NC(=O)CNC(=O)[C@H](Cc1ccccc1)NC(=O)[C@H](Cc1ccccc1)NC(=O)[C@@H]1CCC(=O)N1)C(N)=O [CAP-TAC1, pGlu-FFGLM-NH2] (HELM PEPTIDE1{[Glp].F.F.G.L.M.[am]}$$$$V2.0)", "value_units": "min", "reported_measurement": 14.4}
